Source: ChEMBL document CHEMBL1125662

pKi overview
- SYSTEM: Aromatase (Homo sapiens)
- Sequence (P11511 whole entry): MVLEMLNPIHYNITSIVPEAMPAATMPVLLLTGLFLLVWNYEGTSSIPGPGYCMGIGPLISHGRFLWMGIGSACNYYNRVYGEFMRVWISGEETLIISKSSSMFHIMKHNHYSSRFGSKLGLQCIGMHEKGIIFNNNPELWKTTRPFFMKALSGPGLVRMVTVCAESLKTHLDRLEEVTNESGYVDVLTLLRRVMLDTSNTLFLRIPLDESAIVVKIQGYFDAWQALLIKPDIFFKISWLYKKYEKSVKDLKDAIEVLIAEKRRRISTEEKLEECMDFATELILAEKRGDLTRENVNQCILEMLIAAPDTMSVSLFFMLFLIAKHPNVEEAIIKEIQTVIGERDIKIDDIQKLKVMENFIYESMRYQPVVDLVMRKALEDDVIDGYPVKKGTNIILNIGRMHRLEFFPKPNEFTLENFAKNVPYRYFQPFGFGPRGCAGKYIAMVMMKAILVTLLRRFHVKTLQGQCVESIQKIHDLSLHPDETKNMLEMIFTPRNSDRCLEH
Please keep in mind that pKi is minus log10 of the molar concentration; only the number is needed.

• C[C@]12CC[C@H]3[C@@H](CCC4=CC(=O)CC[C@@]43C[C@H]3CS3)[C@@H]1CCC2=O = 7.66
• C[C@]12CC[C@H]3[C@@H](CCC4=CC(=O)CC[C@@]43C[C@H]3CO3)[C@@H]1CCC2=O = 7.07
• C[C@]12CC[C@H]3[C@@H](CCC4=CC(=O)CC[C@@]43C[C@@H]3CO3)[C@@H]1CCC2=O = 6.12

Measured pKi of C[C@]12CC[C@H]3[C@@H](CCC4=CC(=O)CC[C@@]43C[C@@H]3CS3)[C@@H]1CCC2=O : 6.69
